assay: Tolerability in CD1 mice: body and organ weights (Example 21); assay type: in vivo; details: 50 mg/kg s.c. twice per week for 6 weeks, percentage of the body weight
measurementLabel: Spleen weight (%)

>  <biopolymerSequence>
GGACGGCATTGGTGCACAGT (antisense; all C 5-methyl, all phosphorothioate, sugars by position not given here; MOE gapmer, 5-10-5) [ISIS 413482, 5-10-5 MOE gapmer]

>  <readoutNumber>
0.5

$$$$
>  <biopolymerSequence>
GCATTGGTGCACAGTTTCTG (antisense; all C 5-methyl, all phosphorothioate, sugars by position not given here; MOE gapmer, 5-10-5) [ISIS 412224, 5-10-5 MOE gapmer]

>  <readoutNumber>
0.5

$$$$
>  <biopolymerSequence>
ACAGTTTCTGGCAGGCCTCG (antisense; all C 5-methyl, all phosphorothioate, sugars by position not given here; MOE gapmer, 5-10-5) [ISIS 412223, 5-10-5 MOE gapmer]

>  <readoutNumber>
0.4

$$$$
>  <biopolymerSequence>
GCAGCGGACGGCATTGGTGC (antisense; all C 5-methyl, all phosphorothioate, sugars by position not given here; MOE gapmer, 5-10-5) [ISIS 412225, 5-10-5 MOE gapmer]

>  <readoutNumber>
0.4

$$$$
>  <biopolymerSequence>
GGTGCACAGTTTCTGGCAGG (all C 5-methyl, all phosphorothioate, sugars by position not given here; MOE gapmer) [ISIS 413481, 5-10-5 MOE gapmer]

>  <readoutNumber>
0.5

$$$$
